meta.source: patent US11419335B2

Tested on: Acinetobacter baumannii (ATCC 1794)
protocol.description: MIC broth microdilution, A. baumannii 1794
Assay type: cell-based
stated.conditions: Table 4
Below, each entry is listed alongside its reported MIC A. bau. 1794.

Study these solved cases before continuing.
{"compound": "CCCCCCCCCCCCCCCCn1cc[n+](-c2ccc(Cl)cc2)c1C.[Br-]", "target.of.assay": "Acinetobacter baumannii (ATCC 1794)", "property.measured": "MIC A. bau. 1794", "reported": "12.5 µM"}
{"compound": "CCCCCCCCCCCCCCCC[N+](C)(C)Cc1ccccc1.[Cl-] [BAC-16, reference compound]", "target.of.assay": "Acinetobacter baumannii (ATCC 1794)", "property.measured": "MIC A. bau. 1794", "reported": "6.25 µM"}
{"compound": "CCCCCCCCCCCCCCCCn1cc[n+](Cc2cccc(F)c2)c1C.[Br-]", "target.of.assay": "Acinetobacter baumannii (ATCC 1794)", "property.measured": "MIC A. bau. 1794", "reported": "25 µM"}

Identify MIC A. bau. 1794 associated with the compound CCCCCCCCCCCC[N+](C)(C)Cc1ccccc1.[Cl-] [BAC-12, reference compound]
75a micromolar

Identify MIC A. bau. 1794 associated with the compound CCCCCCCCCCCCCCCCn1cc[n+](-c2ccc(Oc3ccccc3)cc2)c1C.[Br-]
37.5a micromolar

Identify MIC A. bau. 1794 associated with the compound CCCCCCCCCCCCCCCCn1cc[n+](Cc2cc(C(F)(F)F)cc(C(F)(F)F)c2)c1C.[Br-]
>100 µM

Identify MIC A. bau. 1794 associated with the compound CCCCCCCCCCCCCCCCn1cc[n+](Cc2ccc(Br)cc2)c1C.[Br-]
>100 µM

Identify MIC A. bau. 1794 associated with the compound CCCCCCCCCCCCCCCCn1cc[n+](-c2ccc(OC(F)(F)F)cc2)c1C.[Br-]
18.8a micromolar
